Molecular target: AhR (Homo sapiens, UniProt P35869)
Assay: In Vitro Assay 3: XRE-luciferase reporter assay, agonism in human cell line (HepG2)
Format: cell-based
Parameters: endogenous in cells; host or cells: HepG2
Settings: number of the cell; HepG2, tryptophan free medium, 6 hours, no agonist; read-out: Assay 3: AhR-Luc Human Agonism (EC50)
quantity_name: EC50

AhR (Homo sapiens, UniProt P35869) EC50 of `OCC1CCN(c2cc(-c3ccc(Cl)c(F)c3)nc(-c3cccnc3)n2)CC1` is > 30 µM

Field EC50 (system: AhR (Homo sapiens, UniProt P35869)) for entry `O[C@H]1CCN(c2cc(-c3ccc(Cl)cc3)nc(-c3cncc(F)c3)n2)C1` = > 30 µM

====

Target: AhR (Homo sapiens)
Assay: In Vitro Assay 1: XRE-luciferase reporter assay, antagonism in human cell line (HepG2)
Details: Assay 1: AhR-Luc Human Antagonism (IC50, nM), values marked *: kynurenine 50 μM, 6 hours
quantity_name: IC50

// solved cases for IC50 follow
CC(Nc1cc(-c2ccc(Cl)cc2)nc(-c2cccnc2)n1)C1CCN(C)CC1 (centres unmarked) = > 1000 nM
O[C@@H](CNc1cc(-c2ccc(Cl)cc2)nc(-c2cccnc2)n1)c1ccccc1 = > 1000 nM
O=C1CCC(CNc2cc(-c3ccc(Cl)cc3)nc(-c3cccnc3)n2)N1 (centres unmarked) = > 1000 nM
OCCC1CCCCN1c1cc(-c2ccc(Cl)cc2)nc(-c2cccnc2)n1 (centres unmarked) = > 1000 nM
Cc1cccc(N2CCN(c3cc(-c4ccc(Cl)cc4)nc(-c4cccnc4)n3)CC2)c1C = 10 to 100 nM
Clc1ccc(-c2cc(NC3CCCNC3)nc(-c3cccnc3)n2)cc1 (centres unmarked) [Example 101] = 100 to 1000 nM

Reading of IC50 for `Cc1ccccc1N1CCN(c2cc(-c3ccc(Cl)cc3)nc(-c3cccnc3)n2)CC1` with AhR (Homo sapiens): > 1000 nM

Value (IC50, AhR (Homo sapiens)) for record `Clc1ccc(-c2cc(N3CCN(Cc4ccc5c(c4)OCO5)CC3)nc(-c3cccnc3)n2)cc1` = < 10 nM

====

Biological target: AhR (Homo sapiens)
Assay: In Vitro Assay 1: XRE-luciferase reporter assay, antagonism in human cell line (HepG2)
Details: Assay 1: AhR-Luc Human Antagonism (IC50, nM), values marked *: kynurenine 50 μM, 6 hours
quantity_name: IC50

Below are worked cases with known answers.
Clc1ccc(-c2cc(N3CCNC[C@@H]3c3ccccc3)nc(-c3cccnc3)n2)cc1 [Example 113] = > 1000 nM
F[C@H]1CCN(c2cc(-c3ccc(Cl)cc3)nc(-c3cccnc3)n2)C1 [Example 196] = 10 to 100 nM
Cn1cc(-c2nc(-c3ccc(Cl)cc3)cc(N3CCC(O)CC3)n2)cn1 [Example 176] = > 1000 nM

The measured IC50 that C[C@@H](CO)Nc1nc(-c2ccc(Cl)cc2)cc(-c2cccnc2)n1 [Example 3] showed for AhR (Homo sapiens) is 100 to 1000 nM

Given the compound CC(=O)N1CCCN(c2cc(-c3ccc(Cl)cc3)nc(-c3cccnc3)n2)C1 [Example 232] and test system AhR (Homo sapiens), the measured IC50 is < 10 nM

====

Molecular target: AhR (Homo sapiens)
Sequence (P35869 11-848): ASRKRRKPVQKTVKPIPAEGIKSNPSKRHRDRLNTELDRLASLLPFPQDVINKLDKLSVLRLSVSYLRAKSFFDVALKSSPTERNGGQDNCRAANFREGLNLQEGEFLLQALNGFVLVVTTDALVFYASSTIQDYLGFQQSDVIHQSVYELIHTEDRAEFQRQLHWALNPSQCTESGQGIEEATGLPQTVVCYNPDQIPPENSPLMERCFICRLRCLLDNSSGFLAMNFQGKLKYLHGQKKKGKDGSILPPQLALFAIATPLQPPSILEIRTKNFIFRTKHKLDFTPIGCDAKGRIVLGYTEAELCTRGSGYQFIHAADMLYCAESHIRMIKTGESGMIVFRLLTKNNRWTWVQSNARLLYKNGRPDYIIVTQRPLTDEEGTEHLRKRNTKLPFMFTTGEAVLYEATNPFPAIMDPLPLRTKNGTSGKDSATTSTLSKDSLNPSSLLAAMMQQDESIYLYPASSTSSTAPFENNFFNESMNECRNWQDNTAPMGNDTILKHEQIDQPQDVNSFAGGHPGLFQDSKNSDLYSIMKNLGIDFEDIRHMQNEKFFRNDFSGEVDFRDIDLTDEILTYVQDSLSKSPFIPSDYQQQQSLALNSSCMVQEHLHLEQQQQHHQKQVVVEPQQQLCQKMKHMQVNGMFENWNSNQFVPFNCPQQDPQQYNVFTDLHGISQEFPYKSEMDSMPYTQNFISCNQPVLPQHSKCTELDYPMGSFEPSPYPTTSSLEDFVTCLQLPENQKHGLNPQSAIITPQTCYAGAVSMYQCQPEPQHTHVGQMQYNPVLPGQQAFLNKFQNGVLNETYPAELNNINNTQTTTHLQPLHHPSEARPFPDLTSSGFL
Experiment: In Vitro Assay 1: XRE-luciferase reporter assay, antagonism in human cell line (HepG2)
Conditions: Assay 1: AhR-Luc Human Antagonism (IC50, nM), unmarked values: kynurenine 200 μM, 6 hours
quantity_name: IC50

Below, each entry is followed by its recorded IC50 result.
O=C(CC(O)CO)N1CCN(c2cc(-c3ccc(Cl)cc3)nc(-c3cccnc3)n2)CC1 (stereo not shown) = < 10 nM
OC[C@H]1CN(c2cc(-c3ccc(C(F)(F)F)cc3)nc(-c3cccnc3)n2)CCN1 = 10 to 100 nM
CN(C)CCNc1ccc(-c2cc(N3CC[C@H](O)C3)nc(-c3cccnc3)n2)cn1 = 100 to 1000 nM
O[C@H]1CN(c2cc(-c3ccc(Cl)cc3)nc(-c3cccnc3)n2)C[C@@H]1O = < 10 nM
O[C@H]1CN(c2cc(-c3ccc(C(F)(F)F)cc3)nc(-c3cccnc3)n2)C[C@@H]1O = < 10 nM
OC1CCCN(c2cc(-c3ccc(Cl)cc3)nc(-c3cccnc3)n2)CC1 (stereo not shown) = 10 to 100 nM

// `O=S(=O)(CCO)N1CCN(c2cc(-c3ccc(C(F)(F)F)cc3)nc(-c3cccnc3)n2)CC1` : IC50 value = < 10 nM

Value of IC50 reported for the molecule `O[C@H]1CCN(c2cc(-c3ccc(Cl)cc3)nc(-c3cncnc3)n2)C1` is < 10 nM

The value of IC50 measured for the molecule `O=[N+]([O-])c1cc(-c2cc(N3CC[C@H](O)C3)nc(-c3cccnc3)n2)ccc1F` turned out to be > 1000 nM

Quick note, IC50 for `O=C1COCCN1c1ccc(-c2cc(N3CC[C@H](O)C3)nc(-c3cccnc3)n2)cc1` landed at > 1000 nM

Recorded IC50 (molecule `O=C(O)[C@@H]1CCN(c2cc(-c3ccc(Cl)cc3)nc(-c3cccnc3)n2)C1` ): 100 to 1000 nM

IC50 reading for `CS(=O)(=O)C1(CO)CCN(c2cc(-c3ccc(C(F)(F)F)cc3)nc(-c3cccnc3)n2)CC1` : > 1000 nM

The reported value for `CC(=O)Nc1cc(-c2cc(N3CC[C@H](O)C3)nc(-c3cccnc3)n2)ccc1N1CCOCC1` in terms of IC50 is > 1000 nM

The value of IC50 measured for the molecule CC(O)C(O)C(=O)N1CCN(c2cc(-c3ccc(Cl)cc3)nc(-c3cccnc3)n2)CC1 (stereo not shown) turned out to be < 10 nM

Input `O=C1COCCN1c1ccc(-c2cc(N3CC[C@H](O)C3)nc(-c3cccnc3)n2)cn1` . Output IC50: 100 to 1000 nM

// sample `Nc1ccc(-c2cc(N3CC[C@H](O)C3)nc(-c3cccnc3)n2)cc1` , its IC50 was > 1000 nM

These measurements were taken from patent US20230150970A1.
